All values here come from patent US9533985B2.

- TESTED TARGET: α4β7 integrin (Homo sapiens (Human), UniProt P13612+P26010)
- Sequence (P26010 20-798, one chain of several): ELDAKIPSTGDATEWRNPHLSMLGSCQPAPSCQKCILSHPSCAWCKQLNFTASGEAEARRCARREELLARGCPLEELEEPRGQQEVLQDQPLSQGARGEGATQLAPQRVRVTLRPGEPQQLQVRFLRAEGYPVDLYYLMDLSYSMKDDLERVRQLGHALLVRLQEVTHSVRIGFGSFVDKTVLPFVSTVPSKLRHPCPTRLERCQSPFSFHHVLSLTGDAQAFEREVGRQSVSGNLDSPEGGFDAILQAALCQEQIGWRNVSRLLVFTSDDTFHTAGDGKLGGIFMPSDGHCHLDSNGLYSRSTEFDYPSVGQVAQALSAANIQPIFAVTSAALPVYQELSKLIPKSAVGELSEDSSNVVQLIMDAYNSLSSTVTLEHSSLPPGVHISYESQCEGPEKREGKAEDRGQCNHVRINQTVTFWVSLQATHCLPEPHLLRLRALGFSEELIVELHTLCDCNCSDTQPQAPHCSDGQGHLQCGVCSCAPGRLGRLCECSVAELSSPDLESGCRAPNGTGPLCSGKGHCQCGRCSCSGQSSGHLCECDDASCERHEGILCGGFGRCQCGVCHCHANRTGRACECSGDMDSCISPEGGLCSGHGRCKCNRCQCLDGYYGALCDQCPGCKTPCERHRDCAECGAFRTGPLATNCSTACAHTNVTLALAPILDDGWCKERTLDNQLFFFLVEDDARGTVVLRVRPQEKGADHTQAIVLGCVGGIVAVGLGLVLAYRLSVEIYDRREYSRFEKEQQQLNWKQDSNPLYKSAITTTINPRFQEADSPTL
- ASSAY PROCEDURE: MAdCAM-1/α4β7 integrin binding inhibitory activity evaluation test (RPMI-8866 cell adhesion to MAdCAM-1/Fc)
- Type: cell-based
- RECORDED CONDITIONS: IC50 in VCAM-1/α4β1 test divided by IC50 in MAdCAM-1/α4β7 test
- Protocol: The ability of test substances to inhibit the binding of a human B cell line, RPMI-8866, which is known to express α4β7 integrin, to MAdCAM-1 was measured. […] To each well, 30 μL of Stop Solution (Promega, CytoTox 96 Non-Radioactive Cytotoxicity Assay) was added, and the absorbance at 490 nm was measured by using a plate reader. Here, by the obtained absorbance, the activity of the lactate dehydrogenase (LDH) dissolved into the supernatant of each well was detected. […]
READOUT: Selectivity

Cn1c(=O)n(-c2ccc(C[C@H](NC(=O)c3ccc(NS(=O)(=O)c4ccncc4)cc3F)C(=O)O)cc2)c(=O)c2ccncc21 [Example 39] = 170
Cn1c(=O)n(-c2ccc(C[C@H](NC(=O)c3c(F)cc(NS(=O)(=O)c4ccc(-c5ccoc5)cc4)cc3F)C(=O)O)cc2)c(=O)c2ccncc21 [Example 66] = 180
COc1ccc2c(c1)c(=O)n(-c1ccc(C[C@H](NC(=O)c3c(F)cc(NS(=O)(=O)c4ccc(-n5ccnn5)cc4)cc3F)C(=O)O)cc1)c(=O)n2C [Example 51] = 220
Cn1c(=O)n(-c2ccc(C[C@H](NC(=O)c3c(F)cc(NS(=O)(=O)c4ccc(-n5cncn5)cn4)cc3F)C(=O)O)cc2)c(=O)c2ccncc21 [Example 57] = 220

A = COc1cc2c(=O)n(-c3ccc(C[C@H](NC(=O)c4c(F)cc(NS(=O)(=O)c5ccc(-c6ncccn6)cc5)cc4F)C(=O)O)cc3)c(=O)n(C)c2cn1 [Example 46]
B = Cc1cc(-c2ccc(S(=O)(=O)Nc3cc(F)c(C(=O)N[C@@H](Cc4ccc(-n5c(=O)c6c(ncn6C)n(C)c5=O)cc4)C(=O)O)c(F)c3)cc2)ccn1 [Example 74]
// max by Selectivity over [ A , B ] Return value: the label identifying the chosen record.
B

====

- TESTED TARGET: α4β1 integrin (Homo sapiens (Human), UniProt P05556+P13612)
- Sequence (P13612 34-1032): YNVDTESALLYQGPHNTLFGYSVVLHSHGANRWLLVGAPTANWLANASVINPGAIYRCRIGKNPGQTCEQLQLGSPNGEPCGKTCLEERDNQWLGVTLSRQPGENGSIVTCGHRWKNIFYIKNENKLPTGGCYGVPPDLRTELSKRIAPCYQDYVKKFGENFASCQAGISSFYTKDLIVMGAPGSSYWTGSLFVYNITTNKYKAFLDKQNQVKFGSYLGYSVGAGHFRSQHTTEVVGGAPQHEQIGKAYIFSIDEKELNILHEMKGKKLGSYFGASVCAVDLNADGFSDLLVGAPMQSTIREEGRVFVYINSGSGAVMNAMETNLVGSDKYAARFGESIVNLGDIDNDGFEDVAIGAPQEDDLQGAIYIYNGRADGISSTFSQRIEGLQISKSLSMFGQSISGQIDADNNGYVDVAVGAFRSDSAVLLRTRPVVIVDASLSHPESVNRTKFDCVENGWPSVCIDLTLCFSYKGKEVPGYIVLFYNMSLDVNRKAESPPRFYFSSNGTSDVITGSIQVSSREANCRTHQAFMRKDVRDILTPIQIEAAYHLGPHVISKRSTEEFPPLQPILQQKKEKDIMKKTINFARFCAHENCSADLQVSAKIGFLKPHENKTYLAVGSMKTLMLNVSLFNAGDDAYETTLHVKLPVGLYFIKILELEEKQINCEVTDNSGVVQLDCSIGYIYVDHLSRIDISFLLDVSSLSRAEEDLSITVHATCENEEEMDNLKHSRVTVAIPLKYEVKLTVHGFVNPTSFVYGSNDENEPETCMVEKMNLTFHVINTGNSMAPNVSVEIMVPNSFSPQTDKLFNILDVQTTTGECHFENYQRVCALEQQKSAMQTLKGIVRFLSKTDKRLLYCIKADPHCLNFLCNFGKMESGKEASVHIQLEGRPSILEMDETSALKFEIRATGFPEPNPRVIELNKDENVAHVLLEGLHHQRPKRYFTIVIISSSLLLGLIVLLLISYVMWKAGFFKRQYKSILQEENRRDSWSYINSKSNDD
- Sequence (P05556 21-798): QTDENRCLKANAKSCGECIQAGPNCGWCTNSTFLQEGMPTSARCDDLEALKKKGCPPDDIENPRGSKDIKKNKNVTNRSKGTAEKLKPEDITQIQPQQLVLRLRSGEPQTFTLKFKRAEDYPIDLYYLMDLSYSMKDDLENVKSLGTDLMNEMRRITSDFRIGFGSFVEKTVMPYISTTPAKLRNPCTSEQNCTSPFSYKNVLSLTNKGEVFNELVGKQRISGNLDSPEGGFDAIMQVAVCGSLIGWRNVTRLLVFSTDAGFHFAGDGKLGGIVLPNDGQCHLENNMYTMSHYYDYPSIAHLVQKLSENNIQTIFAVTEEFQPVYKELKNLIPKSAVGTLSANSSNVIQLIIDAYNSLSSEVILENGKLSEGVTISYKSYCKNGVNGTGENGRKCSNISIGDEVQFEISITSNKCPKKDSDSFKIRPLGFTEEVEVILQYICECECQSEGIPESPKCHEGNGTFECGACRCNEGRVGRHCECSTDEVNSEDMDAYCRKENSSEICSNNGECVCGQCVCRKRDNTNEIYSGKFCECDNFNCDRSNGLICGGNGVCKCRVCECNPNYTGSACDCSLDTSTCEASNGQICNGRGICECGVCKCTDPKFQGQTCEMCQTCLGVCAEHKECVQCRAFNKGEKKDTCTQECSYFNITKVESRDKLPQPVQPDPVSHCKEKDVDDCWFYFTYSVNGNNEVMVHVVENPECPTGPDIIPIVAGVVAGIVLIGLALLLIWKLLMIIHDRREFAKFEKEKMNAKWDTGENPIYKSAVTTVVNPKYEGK
- ASSAY PROCEDURE: VCAM-1/α4β1 integrin binding inhibitory activity evaluation test (Jurkat cell adhesion to VCAM-1/Fc)
- RECORDED CONDITIONS: Jurkat cells binding to recombinant human VCAM-1/Fc
pIC50: −log10 of the molar value.
READOUT: pIC50

Here is how some compounds turned out for pIC50.
COc1cc2c(=O)n(-c3ccc(C[C@H](NC(=O)c4c(F)cc(NS(=O)(=O)c5ccc(-c6ncccn6)cc5)cc4F)C(=O)O)cc3)c(=O)n(C)c2cn1 [Example 46] = 6.70
Cn1ccc(=O)n(-c2ccc(C[C@H](NC(=O)c3c(F)cc(NS(=O)(=O)c4ccc(-n5ccnn5)cc4)cc3F)C(=O)O)cc2)c1=O [Example 58] = 6.39
Cn1ccc(=O)n(-c2ccc(C[C@H](NC(=O)c3c(F)cc(NS(=O)(=O)c4ccc(-n5cncn5)cn4)cc3F)C(=O)O)cc2)c1=O [Example 56] = 6.80

1 = Cn1c(=O)n(-c2ccc(C[C@H](NC(=O)c3c(F)cc(NS(=O)(=O)c4ccc(-n5cccc5)cc4)cc3F)C(=O)O)cc2)c(=O)c2ccncc21 [Example 43]
2 = Cn1ccc(=O)n(-c2ccc(C[C@H](NC(=O)c3c(F)cc(NS(=O)(=O)c4ccc(-c5cncnc5)cc4)cc3F)C(=O)O)cc2)c1=O [Example 60]
3 = Cn1ccc(=O)n(-c2ccc(C[C@H](NC(=O)c3c(F)cc(NS(=O)(=O)c4ccc(C(=O)NC5CC5)cc4)cc3F)C(=O)O)cc2)c1=O [Example 45]
Please order the records by their reported pIC50, lowest number first. Please reply with the labels ordered as requested. Many thanks.
2, 3, 1
